Provenance of the data: patent US20250027068

- targetEntity: pooled human IgG (human IgG1,2,3 and 4)
Task for the reader: assign each of the following proteins its reported Enzyme Activity Endpoint Assay: Fc.
Hi! Could you send only the number? It should be in ng/µL, unit omitted.

Which Enzyme Activity Endpoint Assay: Fc is listed for PRT-252 (protein) MVTSVWTKGVTPPTNFTYGEDVLHAPYVANQGWYDITKLFNGKDDLLCGAATAGNMLHWWFDQNKEQIENYLKKHPEKQKINFNGEQMFDVKEAIDTKDSQLDSKLFEYFLEKAFPNLSTKHLGVFPDHVIDMFINGYRLSLLNHGPTPVKRGSKDPRGGIFDAVFTRGDQSKLLTNRHDFKEKTLKEISDLIKQELTEGKALGISHTYANGRINHVINLWGADFDAEGNLEAIAVTDSDSNASIGMKKYFVGVNSSGKVAISAKEIEEDNIGAQVLGLFTLSTGQDIWNQTN ?
365

Which Enzyme Activity Endpoint Assay: Fc is listed for PRT-91 (protein) MANQEIRYSEETPYHITSVWTKGVTPPAKFTQGEDVFHAPYVANQGWYDITKTFNGKDDLLCGAATAGNMLHWWFDQNKEKIEAYLKKHPEKQKIMFGDQELLDVRKVINTKDDQTNSELFNYFRDKAFPNLSARRLGVMPDLVLDMFINGYYLNVGKTQTTDVNRTYQEKDKRGGIFDAVFTRGDQSKLLTSRHDFKEKNLKEISDLIKQELTEGKALGLSHTYANVRINHVINLWGADFDSNGNLKAIYVTDSDSNASIGMKKYFVGVNSAGKVAISAKEIEEDNIGAQVLGLFTLSTGQDIWNQTN ?
102

Which Enzyme Activity Endpoint Assay: Fc is listed for PRT-275 (protein) MVTSVWTKGVTPPTDFIYGEDVLHAPYKAGQGWYDITKLFNGKDNLLCGAATAGNMLHWWFDQNKEQIENYLKKHPEKQKIIFNNQELFDLKAAIDTKDSQLDSKLFDYFKEKAFPNLSTKHLGVFPDHVIDMFINGYRLSLLNHGPTPVKRGSKDKRGGIFDAVFTRGVQSKLLTNRHDLKNKTLKEISDLIKQELTEGKALGISHTYANGRINHVINLWGADFDAEGNLEAIYVTDSDTNPSIGMKKYFVGVNSSGKVAISAKEIEEDNIGAQVLGLFTLSTGQDIWNQTN ?
257

Which Enzyme Activity Endpoint Assay: Fc is listed for PRT-98 (protein) MANQEIRYSEVTPYHVTSVWTKGVTPPAKFTQGEDVFHAPYVANQGWYDITKTFNGKDDLLCGAATAGNMLHWWFDQNKEKIEAYLKKHPDKQKIMFGDQELLDVRKVINTKGDQTNSELFNYFRDKAFPGLSARRLGVMPDLVLDMFINGYYLNVYKTQTTDVNRTYQEKDRRGGIFDAVFTRGDQSKLLTSRHDFKEKNLKEISDLIKKELTEGKALGLSHTYANVRINHVINLWGADFDSNGNLKAIYVTDSDSNASIGMKKYFVGVNSAGKVAISAKEIKEDNIGAQVLGLFTLSTGQDSWNQTN ?
180
